tested-on: CYP2C19 (Homo sapiens, UniProt P33261)
Construct: 0.1 mg/mL protein human liver microsomes (BD Gentest); tissue BD Gentest; host or cells: human liver microsomes
Sequence (P33261 whole entry): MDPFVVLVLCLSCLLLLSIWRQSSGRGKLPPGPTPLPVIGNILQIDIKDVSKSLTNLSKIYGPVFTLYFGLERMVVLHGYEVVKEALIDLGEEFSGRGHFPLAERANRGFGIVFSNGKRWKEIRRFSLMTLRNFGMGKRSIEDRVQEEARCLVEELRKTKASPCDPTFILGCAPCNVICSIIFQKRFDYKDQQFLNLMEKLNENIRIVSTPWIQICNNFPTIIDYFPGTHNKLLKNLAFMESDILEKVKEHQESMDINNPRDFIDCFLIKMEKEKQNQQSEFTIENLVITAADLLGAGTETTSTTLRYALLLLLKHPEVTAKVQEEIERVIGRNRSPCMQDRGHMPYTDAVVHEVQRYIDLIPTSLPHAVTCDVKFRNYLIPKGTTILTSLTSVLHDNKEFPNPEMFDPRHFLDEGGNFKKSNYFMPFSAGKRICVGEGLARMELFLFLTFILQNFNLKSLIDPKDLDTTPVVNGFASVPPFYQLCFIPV
experiment-notes: Cocktail assay for CYPs in human liver microsomes: CYP2C19 (mephenytoin 4′-hydroxylation)
Type: biochemical
run-parameters: human liver microsomes 0.1 mg/mL, 30 μM mephenytoin, 10 min at 37° C., 6 concentrations up to 10 μM; read-out: IC50 (nM) CYP2C19
quantity-measured: IC50 (nM)
One number for each entry, in nM.

Recorded results for 5 compounds are shown here.
[
  {
    "compound": "CC(C)c1noc(C2(C)CCN(Cc3cncn3[C@H](C)c3ccc(F)cc3)CC2)n1",
    "tested-on": "CYP2C19 (Homo sapiens, UniProt P33261)",
    "IC50 / nM": 3310
  },
  {
    "compound": "C[C@H](c1ccc(C#N)cc1)n1cncc1CN1CCN(c2nc3ccc(F)c(F)c3o2)CC1",
    "tested-on": "CYP2C19 (Homo sapiens, UniProt P33261)",
    "IC50 / nM": 3740
  },
  {
    "compound": "C[C@H](c1ccc(F)cc1)n1cncc1CN1CCN(C(=O)c2ccccc2)C(c2ccccc2)C1 (single isomer, unassigned) [Compound 50a]",
    "tested-on": "CYP2C19 (Homo sapiens, UniProt P33261)",
    "IC50 / nM": 4330
  },
  {
    "compound": "C[C@H](c1ccc(C#N)cc1)n1cncc1CN1CCN(c2ccccc2)C(C(=O)N2CCC(F)(F)CC2)C1 (some centres unmarked)",
    "tested-on": "CYP2C19 (Homo sapiens, UniProt P33261)",
    "IC50 / nM": 7830
  },
  {
    "compound": "C[C@H](c1ccc(C#N)cc1)n1cncc1CN1CCC(c2nc3ccccc3s2)CC1",
    "tested-on": "CYP2C19 (Homo sapiens, UniProt P33261)",
    "IC50 / nM": 4690
  }
]

What measured IC50 goes with CCOC(=O)CN1CCN(Cc2cncn2C(C)c2ccccc2-c2ccc(F)cc2)CC1 (centres unmarked) ?
5950

###

tested-on: CYP3A4 (Homo sapiens, UniProt P08684)
Construct: 0.1 mg/mL protein human liver microsomes (BD Gentest); tissue BD Gentest; host or cells: human liver microsomes
Sequence (P08684 whole entry): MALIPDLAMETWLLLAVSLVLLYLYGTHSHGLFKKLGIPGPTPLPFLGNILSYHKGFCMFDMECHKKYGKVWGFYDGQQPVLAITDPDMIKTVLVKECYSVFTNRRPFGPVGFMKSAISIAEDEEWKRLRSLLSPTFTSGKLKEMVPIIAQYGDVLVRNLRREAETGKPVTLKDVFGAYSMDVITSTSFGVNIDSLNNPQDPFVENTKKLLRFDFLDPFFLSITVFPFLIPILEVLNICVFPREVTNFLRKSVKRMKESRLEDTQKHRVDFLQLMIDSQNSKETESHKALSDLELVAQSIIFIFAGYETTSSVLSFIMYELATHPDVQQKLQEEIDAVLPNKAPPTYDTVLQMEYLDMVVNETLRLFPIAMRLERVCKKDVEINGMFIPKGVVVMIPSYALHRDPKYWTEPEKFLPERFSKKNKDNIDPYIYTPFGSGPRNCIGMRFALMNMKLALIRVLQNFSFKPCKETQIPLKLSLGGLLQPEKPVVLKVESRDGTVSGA
experiment-notes: Cocktail assay for CYPs in human liver microsomes: CYP3A4 (midazolam 1′-hydroxylation)
Assay type: biochemical
run-parameters: human liver microsomes 0.1 mg/mL, 2 μM midazolam, 10 min at 37° C., 6 concentrations up to 10 μM; read-out: IC50 (nM) CYP3A4
quantity-measured: IC50

[
  {
    "molecule": "CC1CN(Cc2cncn2[C@H](C)c2ccc(C#N)cc2)CC(C)N1C(=O)C1CC(F)(F)C1 (some centres unmarked)",
    "tested-on": "CYP3A4 (Homo sapiens, UniProt P08684)",
    "recorded-value": "7 nM"
  },
  {
    "molecule": "Fc1ccc(CCn2cncc2CN2CCN(c3nc4ccccc4o3)CC2)cc1",
    "tested-on": "CYP3A4 (Homo sapiens, UniProt P08684)",
    "recorded-value": "8 nM"
  },
  {
    "molecule": "C[C@H](c1ccc(F)cc1)n1cncc1CN1CCC(C#N)(C2CCCC2)CC1",
    "tested-on": "CYP3A4 (Homo sapiens, UniProt P08684)",
    "recorded-value": "15 nM"
  },
  {
    "molecule": "CCS(=O)(=O)CCc1cnc(N2CCN(Cc3cncn3[C@H](C)c3ccc(F)cc3)CC2)s1",
    "tested-on": "CYP3A4 (Homo sapiens, UniProt P08684)",
    "recorded-value": "50 nM"
  }
]

Go through the list and state IC50 for each entry.
1. C[C@H](c1ccc(F)cc1)n1cncc1CN1CCC(C#N)(C2CCOCC2)CC1
2. CC(C)C1(C#N)CCN(Cc2cncn2[C@H](C)c2ccc(F)cc2)CC1

21 nM
18 nM

Could you report IC50 for every entry in the following list?
1. CC1CN(Cc2cncn2[C@H](C)c2ccc(F)cc2)CC(C)N1C(=O)C1(C)CC1 (some centres unmarked)
2. COc1ccc(CNc2ncc(CN3CCN(Cc4cncn4[C@H](C)c4ccc(F)cc4)CC3=O)s2)c(OC)c1

["14 nM", "10 nM"]
